B1: library; numbered along this chain (parent)
chain: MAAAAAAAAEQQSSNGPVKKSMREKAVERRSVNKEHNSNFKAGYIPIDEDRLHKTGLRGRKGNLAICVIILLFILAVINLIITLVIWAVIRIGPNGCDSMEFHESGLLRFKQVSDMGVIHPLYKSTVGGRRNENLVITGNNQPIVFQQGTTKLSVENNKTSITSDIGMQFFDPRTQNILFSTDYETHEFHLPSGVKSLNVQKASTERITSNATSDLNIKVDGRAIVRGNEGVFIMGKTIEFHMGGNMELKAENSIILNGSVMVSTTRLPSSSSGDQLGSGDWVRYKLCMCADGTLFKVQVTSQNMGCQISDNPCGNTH

Variants of: B1
Test: SGCB cell-surface expression functional score (HA stain, bin4 vs bin1, normalised to synonymous) (log10 ratio); higher = more cell-surface SGCB (functional)
The entries below are paired with their reported SGCB cell-surface expression functional score (log10).
ENDPOINT_LABEL: SGCB cell-surface expression functional score (log10)

- MUTATION_STRING: "G280Y"
  MEASURED_NUMBER: -0.23
- MUTATION_STRING: "F170Y"
  MEASURED_NUMBER: -0.86
- MUTATION_STRING: "N39C"
  MEASURED_NUMBER: 0.2
- MUTATION_STRING: "G129L"
  MEASURED_NUMBER: -1.15
- MUTATION_STRING: "G231C"
  MEASURED_NUMBER: -0.5
- MUTATION_STRING: "S161T"
  MEASURED_NUMBER: 0.3
- MUTATION_STRING: "I90P"
  MEASURED_NUMBER: -1.1
- MUTATION_STRING: "D183G"
  MEASURED_NUMBER: -1.31
- MUTATION_STRING: "I92H"
  MEASURED_NUMBER: -1.9
- MUTATION_STRING: "N158F"
  MEASURED_NUMBER: -0.06
- MUTATION_STRING: "Q148W"
  MEASURED_NUMBER: 0.01
- MUTATION_STRING: "P143D"
  MEASURED_NUMBER: -0.9
- MUTATION_STRING: "F146M"
  MEASURED_NUMBER: -0.56
- MUTATION_STRING: "V27C"
  MEASURED_NUMBER: -0.05
- MUTATION_STRING: "T205D"
  MEASURED_NUMBER: -1.46
- MUTATION_STRING: "V283L"
  MEASURED_NUMBER: 0.37
- MUTATION_STRING: "V89A"
  MEASURED_NUMBER: -0.23
- MUTATION_STRING: "Q308C"
  MEASURED_NUMBER: -0.4
- MUTATION_STRING: "K159C"
  MEASURED_NUMBER: -0.02
- MUTATION_STRING: "S161L"
  MEASURED_NUMBER: 0.12
- MUTATION_STRING: "D50I"
  MEASURED_NUMBER: 0.07
- MUTATION_STRING: "K219F"
  MEASURED_NUMBER: 0.64
- MUTATION_STRING: "D172L"
  MEASURED_NUMBER: 0.77
- MUTATION_STRING: "L216M"
  MEASURED_NUMBER: 0.99
- MUTATION_STRING: "V32A"
  MEASURED_NUMBER: 0.26
- MUTATION_STRING: "G293K"
  MEASURED_NUMBER: -0.71
- MUTATION_STRING: "T213R"
  MEASURED_NUMBER: 0.18
- MUTATION_STRING: "M235A"
  MEASURED_NUMBER: 0.36
- MUTATION_STRING: "V195P"
  MEASURED_NUMBER: -1.1
- MUTATION_STRING: "K41P"
  MEASURED_NUMBER: 0.21
- MUTATION_STRING: "R223D"
  MEASURED_NUMBER: 0.48
- MUTATION_STRING: "V300R"
  MEASURED_NUMBER: -0.27
- MUTATION_STRING: "S272W"
  MEASURED_NUMBER: -0.13
- MUTATION_STRING: "E104D"
  MEASURED_NUMBER: 0.17
- MUTATION_STRING: "T266I"
  MEASURED_NUMBER: 0.26
- MUTATION_STRING: "G128H"
  MEASURED_NUMBER: -0.22
- MUTATION_STRING: "L153H"
  MEASURED_NUMBER: -1.03
- MUTATION_STRING: "T163S"
  MEASURED_NUMBER: -1.01
- MUTATION_STRING: "D215M"
  MEASURED_NUMBER: -1
- MUTATION_STRING: "N39I"
  MEASURED_NUMBER: -0.18
- MUTATION_STRING: "N132W"
  MEASURED_NUMBER: -0.63
- MUTATION_STRING: "L295S"
  MEASURED_NUMBER: -0.42
- MUTATION_STRING: "F170E"
  MEASURED_NUMBER: -2.21
- MUTATION_STRING: "N316Q"
  MEASURED_NUMBER: 0.13
- MUTATION_STRING: "D98M"
  MEASURED_NUMBER: 0.01
- MUTATION_STRING: "L71F"
  MEASURED_NUMBER: -0.14
- MUTATION_STRING: "E10T"
  MEASURED_NUMBER: 0.27
- MUTATION_STRING: "I144H"
  MEASURED_NUMBER: -0.73
- MUTATION_STRING: "S164H"
  MEASURED_NUMBER: -1.56
- MUTATION_STRING: "G106M"
  MEASURED_NUMBER: -0.94
- MUTATION_STRING: "T160Q"
  MEASURED_NUMBER: -1.26
- MUTATION_STRING: "V32D"
  MEASURED_NUMBER: 0.47
- MUTATION_STRING: "T265W"
  MEASURED_NUMBER: 0.38
- MUTATION_STRING: "M262V"
  MEASURED_NUMBER: 0.78
- MUTATION_STRING: "G96D"
  MEASURED_NUMBER: -2.13
- MUTATION_STRING: "P269W"
  MEASURED_NUMBER: 0.56
- MUTATION_STRING: "K202L"
  MEASURED_NUMBER: 0.04
- MUTATION_STRING: "F241P"
  MEASURED_NUMBER: -0.89
- MUTATION_STRING: "C314G"
  MEASURED_NUMBER: -0.29
- MUTATION_STRING: "V263Y"
  MEASURED_NUMBER: 0.3
- MUTATION_STRING: "N229W"
  MEASURED_NUMBER: 0
- MUTATION_STRING: "L107Q"
  MEASURED_NUMBER: 0
- MUTATION_STRING: "V85C"
  MEASURED_NUMBER: -0.21
- MUTATION_STRING: "E24V"
  MEASURED_NUMBER: 0.26
- MUTATION_STRING: "I162Q"
  MEASURED_NUMBER: -0.98
- MUTATION_STRING: "Q299W"
  MEASURED_NUMBER: 0.13
- MUTATION_STRING: "G62Q"
  MEASURED_NUMBER: 0.34
- MUTATION_STRING: "L84K"
  MEASURED_NUMBER: 0.18
- MUTATION_STRING: "Y184S"
  MEASURED_NUMBER: -1.04
- MUTATION_STRING: "N79F"
  MEASURED_NUMBER: -0.85
- MUTATION_STRING: "Q201A"
  MEASURED_NUMBER: 0.62
- MUTATION_STRING: "R51H"
  MEASURED_NUMBER: 0
- MUTATION_STRING: "D311T"
  MEASURED_NUMBER: -0.93
- MUTATION_STRING: "F146E"
  MEASURED_NUMBER: -0.7
- MUTATION_STRING: "N39K"
  MEASURED_NUMBER: 0.08
- MUTATION_STRING: "C307H"
  MEASURED_NUMBER: -0.89
- MUTATION_STRING: "T213H"
  MEASURED_NUMBER: -0.04
- MUTATION_STRING: "E49F"
  MEASURED_NUMBER: 0.11
- MUTATION_STRING: "M262R"
  MEASURED_NUMBER: 0.7
- MUTATION_STRING: "A42F"
  MEASURED_NUMBER: -0.42
- MUTATION_STRING: "N79D"
  MEASURED_NUMBER: -0.24
- MUTATION_STRING: "L198V"
  MEASURED_NUMBER: -0.55
- MUTATION_STRING: "P94W"
  MEASURED_NUMBER: 0.26
- MUTATION_STRING: "G167C"
  MEASURED_NUMBER: -2.06
- MUTATION_STRING: "W87K"
  MEASURED_NUMBER: 0.25
- MUTATION_STRING: "T150F"
  MEASURED_NUMBER: -0.59
- MUTATION_STRING: "R109Y"
  MEASURED_NUMBER: -0.17
- MUTATION_STRING: "N141W"
  MEASURED_NUMBER: -0.63
- MUTATION_STRING: "R227I"
  MEASURED_NUMBER: -0.01
- MUTATION_STRING: "R30P"
  MEASURED_NUMBER: -0.15
- MUTATION_STRING: "I218M"
  MEASURED_NUMBER: 0.26

Where do the numbers come from? From the supplement of paper PMC10266784.
